procedure details: Cytotoxicity against human HuH5.2 cells assessed as anti-metabolic effect after 72 hrs by MTT assay
Assay type: ADME, cell-based, Huh-5-2
particulars: HuH5.2 (Huh-5-2) cells
readout type: CC50 at 72 h (µM)

1) O=C1/C(=C\c2ccc(Br)cc2)C=C(c2ccccc2)N1c1ccccc1 :: 25.7
2) CCOC(=O)c1ccc(/C=C2/C=C(c3ccccc3)N(c3ccccc3)C2=O)cc1 :: 112
3) COc1ccc(/C=C2/C=C(c3ccccc3)N(c3ccccc3)C2=O)cc1 :: 97.2
4) O=C1/C(=C\c2ccc(-c3ccccc3)cc2)C=C(c2ccccc2)N1c1ccccc1 :: 156
5) CN1CCN(Cc2c3c(c(CN4CCN(C)CC4)c4c2CCC4)CCC3)CC1 :: 36.9
6) O=C1/C(=C\c2ccccc2)C=C(c2ccccc2)N1c1ccccc1 :: 30.3
7) N=c1c(S(=O)(=O)c2ccc(Cl)cc2)cc2c(=O)n3ccccc3nc2n1CCN1CCOCC1 :: 151
